Source of measurements: patent US11339161B2

Tested on: panel of 15 kinases
EXPERIMENTAL_DETAILS: Z'-LYTE SelectScreen kinase panel: number of kinases with <40% inhibition
Type: biochemical
TEST_CONTEXT: of 15 kinases tested; 10 μmolar compound; ATP at Km app
Would you kindly list No. of kinases with <40% inhibition for each of these compounds?

Ask: Look up No. of kinases with <40% inhibition for this compound: CCn1ncc2c1CC[C@H](Nc1nc3c(-c4ccc(F)c(Cl)c4)cccn3n1)C2 [Example S-61]
Reply: 15/15

Ask: Look up No. of kinases with <40% inhibition for this compound: CCn1ncc2c1CCC(Nc1nc3c(-c4ccc(C)nc4)cccn3n1)C2 (stereo not shown) [Example 67]
Reply: 14/15

Ask: Look up No. of kinases with <40% inhibition for this compound: CCn1ncc2c1CCC(Nc1nc3c(-c4cccc(Cl)c4)cccn3n1)C2 (stereo not shown) [Example 59]
Reply: 13/15

Ask: Look up No. of kinases with <40% inhibition for this compound: CCn1ncc2c1CCC(Nc1nc3c(-c4cncc(OC)c4)cccn3n1)C2 (stereo not shown) [Example 70]
Reply: 11/15

Ask: Look up No. of kinases with <40% inhibition for this compound: CCn1ncc2c1CC[C@@H](Nc1nc3c(-c4ccc(F)c(Cl)c4)cccn3n1)C2 [Example R-61]
Reply: 15/15

Ask: Look up No. of kinases with <40% inhibition for this compound: CCn1ncc2c1CCC(Nc1nc3c(-c4cnccc4OC)cccn3n1)C2 (stereo not shown) [Example 68]
Reply: 11/15

Ask: Look up No. of kinases with <40% inhibition for this compound: CCn1ncc2c1CCC(Nc1nc3c(-c4cccnc4)cccn3n1)C2 (stereo not shown) [Example 63]
Reply: 12/15

Ask: Look up No. of kinases with <40% inhibition for this compound: CCn1ncc2c1CCC(Nc1nc3c(-c4ccc(OC)nc4)cccn3n1)C2 (stereo not shown) [Example 71]
Reply: 11/15

Ask: Look up No. of kinases with <40% inhibition for this compound: CCn1ncc2c1CCC(Nc1nc3c(-c4cccnc4OC)cccn3n1)C2 (stereo not shown) [Example 69]
Reply: 15/15

Ask: Look up No. of kinases with <40% inhibition for this compound: CCn1ncc2c1CCC(Nc1nc3c(-c4cncc(Cl)c4)cccn3n1)C2 (stereo not shown) [Example 73]
Reply: 8/15
